- measurement target: MERTK (Homo sapiens)
- Sequence (Q12866 21-999): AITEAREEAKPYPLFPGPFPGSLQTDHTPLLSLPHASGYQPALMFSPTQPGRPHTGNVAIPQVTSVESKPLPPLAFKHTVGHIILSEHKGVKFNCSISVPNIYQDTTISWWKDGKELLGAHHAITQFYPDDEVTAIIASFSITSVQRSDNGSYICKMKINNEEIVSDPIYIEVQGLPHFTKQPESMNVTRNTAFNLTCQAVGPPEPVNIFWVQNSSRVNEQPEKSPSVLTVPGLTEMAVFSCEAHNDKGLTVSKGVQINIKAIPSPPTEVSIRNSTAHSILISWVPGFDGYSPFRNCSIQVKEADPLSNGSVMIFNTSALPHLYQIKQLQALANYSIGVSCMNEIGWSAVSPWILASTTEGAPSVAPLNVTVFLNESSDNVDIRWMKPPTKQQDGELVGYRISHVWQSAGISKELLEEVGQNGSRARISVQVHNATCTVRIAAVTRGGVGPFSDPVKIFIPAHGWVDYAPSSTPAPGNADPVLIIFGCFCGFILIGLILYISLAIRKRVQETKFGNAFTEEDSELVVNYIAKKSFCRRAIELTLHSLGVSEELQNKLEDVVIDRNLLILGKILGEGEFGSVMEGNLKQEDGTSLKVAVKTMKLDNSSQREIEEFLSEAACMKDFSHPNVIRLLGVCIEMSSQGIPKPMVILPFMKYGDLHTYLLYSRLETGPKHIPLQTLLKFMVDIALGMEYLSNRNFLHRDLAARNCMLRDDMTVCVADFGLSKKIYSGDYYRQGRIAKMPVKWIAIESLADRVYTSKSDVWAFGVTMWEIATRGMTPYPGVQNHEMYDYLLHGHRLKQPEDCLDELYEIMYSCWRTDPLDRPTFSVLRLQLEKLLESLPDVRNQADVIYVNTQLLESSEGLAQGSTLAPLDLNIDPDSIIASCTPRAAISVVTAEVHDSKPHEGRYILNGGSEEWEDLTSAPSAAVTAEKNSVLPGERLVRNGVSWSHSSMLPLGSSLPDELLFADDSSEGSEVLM
- assay name: Microfluidic capillary electrophoresis (MCE) kinase activity assay, Mer
- Type: biochemical
- experimental conditions: Table 2; MCE assay, ATP at Km
pIC50: −log10 of the molar value.
Entries and their measured pIC50 follow.
experimental readout: pIC50

CN1CCN(Cc2ccc(-c3cn([C@H]4CC[C@H](O)CC4)c4nc(Nc5cc(Cl)c(F)c(Cl)c5)ncc34)cc2)CC1 [Compound 8]	7.00 to 8.00
CN1CCN(Cc2ccc(-c3cn([C@H]4CC[C@H](O)CC4)c4nc(Nc5cncnc5)ncc34)cc2)CC1 [Compound 66]	> 8.00
CN(C)C1CCN(Cc2ccc(-c3cn([C@H]4CC[C@H](O)CC4)c4nc(Nc5cc(F)cc(Cl)c5)ncc34)cc2)CC1 [Compound 22]	> 8.00
CC(C)(C)OC(=O)N1CCN(Cc2ccc(-c3cn([C@H]4CC[C@H](O)CC4)c4nc(Nc5cc(C(F)(F)F)cc(C(F)(F)F)c5)ncc34)cc2)CC1 [Compound 26]	4.52 to 6.00
CN1CCC(Oc2ccc(-c3cn([C@H]4CC[C@H](O)CC4)c4nc(Nc5cc(F)cc(Cl)c5)ncc34)cc2)CC1 [Compound 37]	> 8.00
CN1CCN(Cc2ccc(-c3cn([C@H]4CC[C@H](O)CC4)c4nc(Nc5ccsc5)ncc34)cc2)CC1 [Compound 174]	> 8.00
O[C@H]1CC[C@H](n2cc(-c3ccc(CN4CCNCC4)cc3)c3cnc(Nc4cc(F)cc(Cl)c4)nc32)CC1 [Compound 29]	> 8.00
CC(C)(C)OC(=O)N1CCN(Cc2ccc(-c3cn([C@H]4CC[C@H](O)CC4)c4nc(Nc5cc(F)cc(Cl)c5)ncc34)cc2)CC1 [Compound 28]	6.00 to 7.00
CN1CCN(Cc2ccc(-c3cn([C@H]4CC[C@H](O)CC4)c4nc(Nc5cncc(Cl)c5)ncc34)cc2)CC1 [Compound 175]	> 8.00
CN1CCCN(Cc2ccc(-c3cn([C@H]4CC[C@H](O)CC4)c4nc(Nc5cc(F)cc(Cl)c5)ncc34)cc2)CC1 [Compound 24]	> 8.00
CN1CCN(Cc2ccc(-c3cn([C@H]4CC[C@H](O)CC4)c4nc(Nc5cccnc5)ncc34)cc2)CC1 [Compound 64]	> 8.00
CC1CCN(Cc2ccc(-c3cn([C@H]4CC[C@H](O)CC4)c4nc(Nc5cc(F)cc(Cl)c5)ncc34)cc2)CC1 [Compound 151]	> 8.00
O[C@H]1CC[C@H](n2cc(-c3ccc(CN4CCNCC4)cc3)c3cnc(Nc4cc(C(F)(F)F)cc(C(F)(F)F)c4)nc32)CC1 [Compound 27]	6.00 to 7.00
O[C@H]1CC[C@H](n2cc(-c3ccc(CN4CCC(F)(F)CC4)cc3)c3cnc(Nc4cc(C(F)(F)F)cc(C(F)(F)F)c4)nc32)CC1 [Compound 10]	6.00 to 7.00
O[C@H]1CC[C@H](n2cc(-c3ccc(CNCCN4CCOCC4)cc3)c3cnc(Nc4cc(C(F)(F)F)cc(C(F)(F)F)c4)nc32)CC1 [Compound 19]	6.00 to 7.00
